Molecular target: T1, recombinant rat MASP1 active protease (amino acids 302-704, C-terminal His Tag) (rat, UniProt Q8CHN8 302-704)
T1 sequence: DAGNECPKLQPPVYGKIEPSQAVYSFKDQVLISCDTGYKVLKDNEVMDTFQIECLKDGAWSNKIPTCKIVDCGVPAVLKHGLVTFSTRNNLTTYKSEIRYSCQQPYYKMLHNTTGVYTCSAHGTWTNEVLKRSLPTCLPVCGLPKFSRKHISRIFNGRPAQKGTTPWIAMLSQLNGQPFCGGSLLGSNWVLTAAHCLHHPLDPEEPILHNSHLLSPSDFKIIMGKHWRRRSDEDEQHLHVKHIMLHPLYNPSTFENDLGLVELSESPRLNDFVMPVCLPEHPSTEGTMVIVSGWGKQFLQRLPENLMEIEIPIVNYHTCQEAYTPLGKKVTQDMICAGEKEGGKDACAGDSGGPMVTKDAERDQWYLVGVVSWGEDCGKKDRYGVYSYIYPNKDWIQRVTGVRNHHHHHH
Assay: cell-based or functional assay
Numbered stars: 1 amine (or outer) side, 2 acyl side, 3 side chain; on linkers, the order of the positions; unused ones are H or OH. Bridge positions count the residues as written; N and C are the ends. Square brackets hold non-standard residues; d marks the D form. Ends that are not written are not given here. * marks the point of attachment. X7 = 4‑(3,5-Dimethyl-1,2-oxazol-4-yl)‑L‑phenylalanine, Cc1noc(C)c1-c1ccc(C[C@H](N[*:1])C(=O)[*:2])cc1; Piperidin‑4‑ylacetic acid = O=C(CC1CCNCC1)*; Pro(4-spirocPr) = O=C(O)[C@@H]1CC2(CC2)CN1; Oic = O=C(O)[C@@H]1C[C@@H]2CCCC[C@@H]2N1; NMeI = CC[C@H](C)[C@H](NC)C(=O)O; tBuAla = CC(C)(C)C[C@H](N)C(=O)O; Chg = N[C@H](C(=O)O)C1CCCCC1; Pen = CC(C)(S)[C@H](N)C(=O)O; NMeC = CN[C@@H](CS)C(=O)O; Dap = NC[C@H](N)C(=O)O; Sar = CNCC(=O)O
I would appreciate it if you labelled entries rule met when rat MASP1 IC50 is 0.06 µM or higher, otherwise rule not met.

[[record]]
binder = "G[NMeI]CSRSLPPICIPD-NH2 (disulfide 3-11; also: HCl salt) [Example 205: G-((N-Me)I)-C+SRSLPPIC+IPD-NH2 (HCl salt)]"
assigned_label = "rule met"

[[record]]
binder = "[Sar]ICSRSLP[Oic]I[Pen]IP-NH2 (disulfide 3-11; also: HCl salt) [Example 67: ((N-Me)G)-IC+SRSLP-(Oic)-I-(Pen)+IP-NH2 (HCl salt)]"
assigned_label = "rule met"

[[record]]
binder = "AICSRS[tBuAla]P[Pro(4-spirocPr)]I[Pen]IPD-NH2 (disulfide 3-11; N-terminus assumed; SMILES CC[C@H](C)[C@H](NC(=O)[C@H](C)N)C(=O)N[C@H]1CSSC(C)(C)[C@@H](C(=O)N[C@H](C(=O)N2CCC[C@H]2C(=O)N[C@@H](CC(=O)O)C(N)=O)[C@@H](C)CC)NC(=O)[C@H]([C@@H](C)CC)NC(=O)[C@@H]2CC3(CC3)CN2C(=O)[C@@H]2CCCN2C(=O)[C@H](CC(C)(C)C)NC(=O)[C@H](CO)NC(=O)[C@H](CCCNC(=N)N)NC(=O)[C@H](CO)NC1=O) [Example 45: AIC+SRS-((tBu)A)-P-((6S)-5-Azaspiro[2.4]heptane-6-carboxylic acid)-I-(Pen)+IPD-NH2]"
assigned_label = "rule not met"

[[record]]
binder = "[Sar]ICSRSLP[Oic]I[Pen]IP[Dap]-OH (disulfide 3-11; also: Dap at position 14 joined through its 3-amino group) [Example 467: ((N-Me)G)-IC+SRSLP-(Oic)-I-(Pen)+IP-(*Dap)-OH]"
assigned_label = "rule met"

[[record]]
binder = "{Piperidin‑4‑ylacetic acid}-ICSRS[tBuAla]PPI[NMeC]I-NH2 (disulfide 2-10; SMILES CC[C@H](C)[C@H](NC(=O)[C@@H]1CSSC[C@H](NC(=O)[C@@H](NC(=O)CC2CCNCC2)[C@@H](C)CC)C(=O)N[C@@H](CO)C(=O)N[C@@H](CCCNC(=N)N)C(=O)N[C@@H](CO)C(=O)N[C@@H](CC(C)(C)C)C(=O)N2CCC[C@H]2C(=O)N2CCC[C@H]2C(=O)N[C@@H]([C@@H](C)CC)C(=O)N1C)C(N)=O) [Example 259: (Piperidin-4-ylacetic acid)-IC+SRS-((tBu)A)-PPI-((N-Me)C)+I-NH2]"
assigned_label = "rule not met"

[[record]]
binder = "AICSRSLP[Oic][Chg]CIPD-NH2 (disulfide 3-11; N-terminus assumed; SMILES CC[C@H](C)[C@H](NC(=O)[C@H](C)N)C(=O)N[C@H]1CSSC[C@@H](C(=O)N[C@H](C(=O)N2CCC[C@H]2C(=O)N[C@@H](CC(=O)O)C(N)=O)[C@@H](C)CC)NC(=O)[C@H](C2CCCCC2)NC(=O)[C@@H]2C[C@@H]3CCCC[C@@H]3N2C(=O)[C@@H]2CCCN2C(=O)[C@H](CC(C)C)NC(=O)[C@H](CO)NC(=O)[C@H](CCCNC(=N)N)NC(=O)[C@H](CO)NC1=O) [Example 270: AIC+SRSLP-(Oic)-(Chg)-C+IPD-NH2]"
assigned_label = "rule met"

[[record]]
binder = "AICSRS[tBuAla]PPI[NMeC]IPD-NH2 (disulfide 3-11; N-terminus assumed; SMILES CC[C@H](C)[C@H](NC(=O)[C@H](C)N)C(=O)N[C@H]1CSSC[C@@H](C(=O)N[C@H](C(=O)N2CCC[C@H]2C(=O)N[C@@H](CC(=O)O)C(N)=O)[C@@H](C)CC)N(C)C(=O)[C@H]([C@@H](C)CC)NC(=O)[C@@H]2CCCN2C(=O)[C@@H]2CCCN2C(=O)[C@H](CC(C)(C)C)NC(=O)[C@H](CO)NC(=O)[C@H](CCCNC(=N)N)NC(=O)[C@H](CO)NC1=O) [Example 48: AIC+SRS-((tBu)A)-PPI-((N-Me)C)+IPD-NH2]"
assigned_label = "rule not met"

[[record]]
binder = "AICSRSLP[rel‑(1R,3R,5R,6R)‑6‑(Trifluoromethyl)‑2‑azabicyclo(3.1.0)hexane‑3‑carboxylic acid]ICIPD-NH2 (disulfide 3-11)"
assigned_label = "rule met"

[[record]]
binder = "[X7]ICSRSLP[Oic]I[Pen]IP-NH2 (disulfide 3-11; N-terminus assumed; SMILES CC[C@H](C)[C@H](NC(=O)[C@@H](N)Cc1ccc(-c2c(C)noc2C)cc1)C(=O)N[C@H]1CSSC(C)(C)[C@@H](C(=O)N[C@H](C(=O)N2CCC[C@H]2C(N)=O)[C@@H](C)CC)NC(=O)[C@H]([C@@H](C)CC)NC(=O)[C@@H]2C[C@@H]3CCCC[C@@H]3N2C(=O)[C@@H]2CCCN2C(=O)[C@H](CC(C)C)NC(=O)[C@H](CO)NC(=O)[C@H](CCCNC(=N)N)NC(=O)[C@H](CO)NC1=O) [Example 360: (4-(3,5-Dimethyl-1,2-oxazol-4-yl)-L-phenylalanine)-IC+SRSLP-(Oic)-I-(Pen)+IP-NH2]"
assigned_label = "rule met"

